system.under.test: GST-Nv-NF-kB (Cys allele) (Nematostella vectensis, UniProt E5G601 2-411)
Sequence: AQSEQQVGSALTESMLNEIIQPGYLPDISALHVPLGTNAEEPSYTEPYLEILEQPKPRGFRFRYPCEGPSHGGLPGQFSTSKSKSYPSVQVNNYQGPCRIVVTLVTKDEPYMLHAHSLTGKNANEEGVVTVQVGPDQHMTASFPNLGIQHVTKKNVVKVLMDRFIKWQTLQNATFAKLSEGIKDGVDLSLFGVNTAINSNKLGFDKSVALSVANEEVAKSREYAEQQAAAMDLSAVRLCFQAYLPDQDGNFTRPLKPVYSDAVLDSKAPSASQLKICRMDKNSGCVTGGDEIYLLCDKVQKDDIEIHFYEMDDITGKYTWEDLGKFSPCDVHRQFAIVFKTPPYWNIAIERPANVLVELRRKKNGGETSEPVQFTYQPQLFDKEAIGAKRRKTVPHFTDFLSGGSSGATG
protocol.description: protein-binding microarray (PBM); PBM: ~300 nM protein, 6 mM HEPES pH 7.8, 80 mM KCl, 0.5 mM EDTA, 0.5 mM EGTA, 6% glycerol, 35 ng/ul poly-dIdC, 1% milk, 1 h, room temperature; high values mean tight binding
conditions: dsDNA, one strand shown
assay.metric: binding signal (z-score)
Quick note: give the figure in z-score, leave out the unit.

Answered cases to consult:
>  <primary.sequence>
CCGATTAACATCAAAATACCCCTTGATGTTAATCGGGTCTTGATTCGCTTGACGCTGCTG

>  <binding signal (z-score)>
6.38

$$$$
>  <primary.sequence>
CCGATTAACATCAAAAGACCCCCTGATGTTAATCGGGTCTTGATTCGCTTGACGCTGCTG

>  <binding signal (z-score)>
5.12

$$$$
>  <primary.sequence>
CCGATTAACATCAGGGGAGAAAATGATGTTAATCGGGTCTTGATTCGCTTGACGCTGCTG

>  <binding signal (z-score)>
5.5

$$$$

Prompt: Which binding signal is listed for CCGATTAACATCAACACCCCCCCTGATGTTAATCGGGTCTTGATTCGCTTGACGCTGCTG ?
Response: 4.06

Prompt: Which binding signal is listed for CCGATTAACATCAGGAGTTCCCCTGATGTTAATCGGGTCTTGATTCGCTTGACGCTGCTG ?
Response: 9.9

* * *

binding signal listing for selected sequences.
system.under.test: GST-Nv-NF-kB (Ser allele) (Nematostella vectensis, UniProt A7UNT2 2-411)
Sequence: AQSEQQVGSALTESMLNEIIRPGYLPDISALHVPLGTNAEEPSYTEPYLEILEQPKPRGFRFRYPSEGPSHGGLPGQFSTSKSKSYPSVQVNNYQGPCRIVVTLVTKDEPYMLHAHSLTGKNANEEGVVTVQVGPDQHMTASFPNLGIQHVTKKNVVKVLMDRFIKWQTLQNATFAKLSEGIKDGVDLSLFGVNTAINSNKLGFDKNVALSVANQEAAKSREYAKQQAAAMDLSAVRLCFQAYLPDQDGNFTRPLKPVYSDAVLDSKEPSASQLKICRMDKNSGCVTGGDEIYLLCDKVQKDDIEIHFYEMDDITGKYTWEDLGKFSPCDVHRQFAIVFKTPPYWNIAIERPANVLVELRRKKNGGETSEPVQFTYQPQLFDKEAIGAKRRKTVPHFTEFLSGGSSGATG
protocol.description: protein-binding microarray (PBM); PBM: ~300 nM protein, 6 mM HEPES pH 7.8, 80 mM KCl, 0.5 mM EDTA, 0.5 mM EGTA, 6% glycerol, 35 ng/ul poly-dIdC, 1% milk, 1 h, room temperature; high values mean tight binding
conditions: dsDNA, one strand shown
Quick note: give the figure in z-score, leave out the unit.

Answered cases to consult:
>  <primary.sequence>
CCGATTAACATCAGGGAAACAAATGATGTTAATCGGGTCTTGATTCGCTTGACGCTGCTG

>  <units>
z-score

>  <binding signal>
3.17

$$$$
>  <primary.sequence>
CCGATTAACATCAACCCCCCCCCTGATGTTAATCGGGTCTTGATTCGCTTGACGCTGCTG

>  <units>
z-score

>  <binding signal>
4.2

$$$$

Prompt: Which binding signal is listed for CCGATTAACATCAGGGTACTACCTGATGTTAATCGGGTCTTGATTCGCTTGACGCTGCTG ?
Response: 2.2

Prompt: Which binding signal is listed for CCGATTAACATCACCCCCACCCCTGATGTTAATCGGGTCTTGATTCGCTTGACGCTGCTG ?
Response: 1.75

Prompt: Which binding signal is listed for CCGATTAACATCAGGGTTTCACCTGATGTTAATCGGGTCTTGATTCGCTTGACGCTGCTG ?
Response: 1.23

Prompt: Which binding signal is listed for CCGATTAACATCAAAAAGTCCCCTGATGTTAATCGGGTCTTGATTCGCTTGACGCTGCTG ?
Response: 11.1

Prompt: Which binding signal is listed for CCGATTAACATCAGGGGAATCTATGATGTTAATCGGGTCTTGATTCGCTTGACGCTGCTG ?
Response: 10.6

Prompt: Which binding signal is listed for CCGATTAACATCAGGGGAAACACTGATGTTAATCGGGTCTTGATTCGCTTGACGCTGCTG ?
Response: 9.65

* * *

binding signal listing for selected sequences.
system.under.test: GST-Hu-p50 (Homo sapiens, UniProt P19838 7-356)
Sequence (P19838 7-356): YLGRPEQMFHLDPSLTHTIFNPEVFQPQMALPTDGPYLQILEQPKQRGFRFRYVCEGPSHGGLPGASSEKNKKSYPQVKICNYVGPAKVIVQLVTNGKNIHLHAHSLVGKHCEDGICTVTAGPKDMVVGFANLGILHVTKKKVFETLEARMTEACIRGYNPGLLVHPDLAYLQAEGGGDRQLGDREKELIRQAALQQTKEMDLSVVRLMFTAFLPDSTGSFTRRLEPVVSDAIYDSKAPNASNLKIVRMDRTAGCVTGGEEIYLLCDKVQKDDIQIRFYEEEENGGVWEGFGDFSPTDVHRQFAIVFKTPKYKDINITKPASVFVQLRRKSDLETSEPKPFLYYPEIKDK
protocol.description: protein-binding microarray (PBM); PBM: ~300 nM protein, 6 mM HEPES pH 7.8, 80 mM KCl, 0.5 mM EDTA, 0.5 mM EGTA, 6% glycerol, 35 ng/ul poly-dIdC, 1% milk, 1 h, room temperature; high values mean tight binding
conditions: dsDNA, one strand shown
State the value with its unit after it.

Prompt: Which binding signal is listed for CCGATTAACATCAGCCCCGGTGTTGATGTTAATCGGGTCTTGATTCGCTTGACGCTGCTG ?
Response: 1.58 z-score

Prompt: Which binding signal is listed for CCGATTAACATCAGAATTTCCCATGATGTTAATCGGGTCTTGATTCGCTTGACGCTGCTG ?
Response: 4.04 z-score

Prompt: Which binding signal is listed for CCGATTAACATCAAGGATCCCCCTGATGTTAATCGGGTCTTGATTCGCTTGACGCTGCTG ?
Response: 6.43 z-score

Prompt: Which binding signal is listed for CCGATTAACATCAGGAATTTTCATGATGTTAATCGGGTCTTGATTCGCTTGACGCTGCTG ?
Response: 1.36 z-score

* * *

system.under.test: GST-Nv-NF-kB (Cys allele) (Nematostella vectensis, UniProt E5G601 2-411)
Sequence: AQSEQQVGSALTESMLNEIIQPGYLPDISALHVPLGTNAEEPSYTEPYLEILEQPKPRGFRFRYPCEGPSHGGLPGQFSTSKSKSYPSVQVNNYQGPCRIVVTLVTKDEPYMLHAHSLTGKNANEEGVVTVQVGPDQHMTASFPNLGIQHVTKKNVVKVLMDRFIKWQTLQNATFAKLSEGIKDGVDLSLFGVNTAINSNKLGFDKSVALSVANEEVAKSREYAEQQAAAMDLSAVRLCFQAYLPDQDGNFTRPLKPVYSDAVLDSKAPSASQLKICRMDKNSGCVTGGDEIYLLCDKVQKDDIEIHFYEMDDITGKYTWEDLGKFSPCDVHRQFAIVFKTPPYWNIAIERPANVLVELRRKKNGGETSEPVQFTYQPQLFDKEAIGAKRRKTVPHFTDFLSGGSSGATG
protocol.description: protein-binding microarray (PBM); PBM: ~300 nM protein, 6 mM HEPES pH 7.8, 80 mM KCl, 0.5 mM EDTA, 0.5 mM EGTA, 6% glycerol, 35 ng/ul poly-dIdC, 1% milk, 1 h, room temperature; Ap Aiptasia and Nv Nematostella (sea anemones) / Co Capsaspora / Aq Amphimedon (sponge) / Dm Drosophila / Hu human; RHD is the Rel homology domain; high values mean tight binding
conditions: dsDNA, one strand shown
binding signal listing for selected sequences.
Quick note: give the figure in z-score, leave out the unit.

Answered cases to consult:
>  <primary.sequence>
CCGATTAACATCAAAAATTCCCTTGATGTTAATCGGGTCTTGATTCGCTTGACGCTGCTG

>  <system.under.test>
GST-Nv-NF-kB (Cys allele) (Nematostella vectensis, UniProt E5G601 2-411)

>  <binding signal (z-score)>
9.28

$$$$
>  <primary.sequence>
CCGATTAACATCAAGGGAAGTCCTGATGTTAATCGGGTCTTGATTCGCTTGACGCTGCTG

>  <system.under.test>
GST-Nv-NF-kB (Cys allele) (Nematostella vectensis, UniProt E5G601 2-411)

>  <binding signal (z-score)>
4.16

$$$$
>  <primary.sequence>
CCGATTAACATCAGAATACCCCCTGATGTTAATCGGGTCTTGATTCGCTTGACGCTGCTG

>  <system.under.test>
GST-Nv-NF-kB (Cys allele) (Nematostella vectensis, UniProt E5G601 2-411)

>  <binding signal (z-score)>
5.69

$$$$
>  <primary.sequence>
CCGATTAACATCACGGAAACCCCTGATGTTAATCGGGTCTTGATTCGCTTGACGCTGCTG

>  <system.under.test>
GST-Nv-NF-kB (Cys allele) (Nematostella vectensis, UniProt E5G601 2-411)

>  <binding signal (z-score)>
4.37

$$$$
>  <primary.sequence>
CCGATTAACATCAAAAGTCCCCTTGATGTTAATCGGGTCTTGATTCGCTTGACGCTGCTG

>  <system.under.test>
GST-Nv-NF-kB (Cys allele) (Nematostella vectensis, UniProt E5G601 2-411)

>  <binding signal (z-score)>
9.23

$$$$
>  <primary.sequence>
CCGATTAACATCAGGGACTACCCTGATGTTAATCGGGTCTTGATTCGCTTGACGCTGCTG

>  <system.under.test>
GST-Nv-NF-kB (Cys allele) (Nematostella vectensis, UniProt E5G601 2-411)

>  <binding signal (z-score)>
5.24

$$$$
>  <primary.sequence>
CCGATTAACATCACGGGATCCCCTGATGTTAATCGGGTCTTGATTCGCTTGACGCTGCTG

>  <system.under.test>
GST-Nv-NF-kB (Cys allele) (Nematostella vectensis, UniProt E5G601 2-411)

>  <binding signal (z-score)>
4.81

$$$$
>  <primary.sequence>
CCGATTAACATCAGGAATCTCCCTGATGTTAATCGGGTCTTGATTCGCTTGACGCTGCTG

>  <system.under.test>
GST-Nv-NF-kB (Cys allele) (Nematostella vectensis, UniProt E5G601 2-411)

>  <binding signal (z-score)>
6.08

$$$$

With those in mind, consider the next sequence.
Prompt: Which binding signal is listed for CCGATTAACATCACCAATTTCCCTGATGTTAATCGGGTCTTGATTCGCTTGACGCTGCTG ?
Response: 4.17
